biological target: T1, Rhesus (Maccaca mulatta, US20090191580-5) c-Met ECD (Rhesus (Maccaca mulatta)); assay: binding ELISA, Rhesus c-Met ECD immobilised (1 µg/ml)
T1 construct: extracellular domain; also called Rhesus c-Met ECD; Rhesus ECD
metric: EC50 (nM)
Please give a number only; it is taken to be in nM.

What value of measured EC50 is listed for 20A11 mAb (antibody, V domains shown) VH: QVQLVESGGGLVQPGGSLRLSCAASGFTFDDYAMSWVRQAPGKGLEWVSAISWNGSSTYYAESMKGRFTISRDNAKNTLYLQMNSLKSEDTAVYYCAKDLIGSHDYWGQGTQVTVSS VL: QAVLTQPPSVSGTLGKTLTISCAGTSSDVGYGNYVSWYQQLPGTAPKLLIYAVSTRASGIPDRFSGSKSGNTASLTISGLQSEDEADYYCASYRSSNNYAFGAGTKLTVL ?
3.4
